Hey, just so you know, these numbers are from patent US9856256B2.

# TEST SYSTEM: UniProt P42336
# Sequence (P42336 whole entry): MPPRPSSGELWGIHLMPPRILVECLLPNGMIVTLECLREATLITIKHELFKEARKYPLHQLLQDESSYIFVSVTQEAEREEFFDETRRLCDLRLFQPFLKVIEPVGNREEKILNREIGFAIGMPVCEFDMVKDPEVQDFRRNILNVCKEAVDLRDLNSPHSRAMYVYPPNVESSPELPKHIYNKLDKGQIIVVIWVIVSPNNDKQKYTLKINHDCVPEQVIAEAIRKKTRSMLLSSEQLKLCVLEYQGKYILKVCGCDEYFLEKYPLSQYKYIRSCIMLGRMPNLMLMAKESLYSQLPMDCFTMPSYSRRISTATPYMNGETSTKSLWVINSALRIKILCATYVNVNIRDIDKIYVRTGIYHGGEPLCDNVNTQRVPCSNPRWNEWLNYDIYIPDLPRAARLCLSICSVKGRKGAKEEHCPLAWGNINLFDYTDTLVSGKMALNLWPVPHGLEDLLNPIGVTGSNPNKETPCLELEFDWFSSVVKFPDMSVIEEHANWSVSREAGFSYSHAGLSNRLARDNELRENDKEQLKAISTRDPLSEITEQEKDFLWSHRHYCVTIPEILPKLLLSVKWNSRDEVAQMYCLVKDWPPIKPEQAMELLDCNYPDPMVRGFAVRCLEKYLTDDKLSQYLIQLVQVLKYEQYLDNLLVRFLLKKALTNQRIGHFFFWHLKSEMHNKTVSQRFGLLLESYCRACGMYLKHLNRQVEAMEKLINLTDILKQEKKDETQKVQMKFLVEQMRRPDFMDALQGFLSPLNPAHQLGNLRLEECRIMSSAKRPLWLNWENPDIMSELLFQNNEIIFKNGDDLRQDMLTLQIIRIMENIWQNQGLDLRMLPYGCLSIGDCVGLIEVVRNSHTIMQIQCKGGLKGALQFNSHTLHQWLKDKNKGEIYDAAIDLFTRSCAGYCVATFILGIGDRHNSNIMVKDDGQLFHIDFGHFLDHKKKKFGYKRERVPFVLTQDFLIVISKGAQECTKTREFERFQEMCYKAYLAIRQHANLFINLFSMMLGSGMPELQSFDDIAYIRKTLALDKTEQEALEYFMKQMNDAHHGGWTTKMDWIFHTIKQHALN
# Sequence (P27986 whole entry partner): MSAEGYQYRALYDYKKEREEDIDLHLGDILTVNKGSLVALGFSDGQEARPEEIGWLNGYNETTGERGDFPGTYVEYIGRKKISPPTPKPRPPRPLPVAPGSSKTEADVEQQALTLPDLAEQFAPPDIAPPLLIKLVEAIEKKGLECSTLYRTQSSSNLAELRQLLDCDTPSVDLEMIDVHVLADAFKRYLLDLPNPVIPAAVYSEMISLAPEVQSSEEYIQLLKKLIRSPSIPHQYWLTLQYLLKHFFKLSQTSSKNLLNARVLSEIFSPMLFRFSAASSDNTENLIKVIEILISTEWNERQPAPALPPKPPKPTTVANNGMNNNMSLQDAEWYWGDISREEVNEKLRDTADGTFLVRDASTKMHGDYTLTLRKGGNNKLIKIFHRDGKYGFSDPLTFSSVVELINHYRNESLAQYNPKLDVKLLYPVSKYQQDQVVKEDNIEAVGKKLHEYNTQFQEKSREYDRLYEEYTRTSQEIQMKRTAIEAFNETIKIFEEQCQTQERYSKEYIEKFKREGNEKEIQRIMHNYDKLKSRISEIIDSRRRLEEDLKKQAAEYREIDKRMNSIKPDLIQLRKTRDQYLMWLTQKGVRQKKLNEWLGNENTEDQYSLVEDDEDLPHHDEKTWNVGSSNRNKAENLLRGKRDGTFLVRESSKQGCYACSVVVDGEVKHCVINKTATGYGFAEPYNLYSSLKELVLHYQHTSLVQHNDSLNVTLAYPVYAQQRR
# PROTOCOL SUMMARY: In vitro enzyme activity assay, PI3K (p110α) kinase, Method II (ADP-Glo assay)
# Assay type: biochemical
# Design: purchased Millipore 14-602-K
# CONDITION DETAILS: read-out: PI3K (p110α) enzyme activity_IC50
pIC50: −log10 of the molar value.
QUANTITY KIND: pIC50

COc1ncc(-c2ccc3ncc(OCCN4C5CCC4COC5)c(=O)n3c2)cc1NS(=O)(=O)c1ccc(F)cc1Cl :: ≥ 9.00
COCCN(CCOc1cnc2ccc(-c3cnc(OC)c(NS(=O)(=O)c4ccc(F)cc4Cl)c3)cn2c1=O)CC(F)(F)F :: 7.30 to 9.00
COc1ncc(-c2ccc3ncc(OCCN4CCN(C)CC4)c(=O)n3c2)cc1NS(=O)(=O)c1ccc(F)cc1Cl :: ≥ 9.00

Please indicate recorded pIC50 of COc1ncc(-c2ccc3ncc(OCCN4CCOCC4C(N)=O)c(=O)n3c2)cc1NS(=O)(=O)c1ccc(F)cc1Cl (stereo not shown) measured with UniProt P42336.
≥ 9.00

Please indicate recorded pIC50 of COc1ncc(-c2ccc3ncc(OCCN4CCOCC4)c(=O)n3c2)cc1NS(=O)(=O)c1ccc(F)c(F)c1 measured with UniProt P42336.
≥ 9.00

Please indicate recorded pIC50 of COc1ncc(-c2ccc3ncc(OC4CN(C)C4)c(=O)n3c2)cc1NS(=O)(=O)c1ccc(F)cc1Cl measured with UniProt P42336.
7.30 to 9.00

Please indicate recorded pIC50 of COc1ncc(-c2ccc3ncc(OCC4CCCN4)c(=O)n3c2)cc1NS(=O)(=O)c1ccc(F)cc1Cl (stereo not shown) measured with UniProt P42336.
7.30 to 9.00

---

pIC50 listing for selected compounds.
# TEST SYSTEM: mTOR (Homo sapiens)
# Construct: recombinant human mTOR fragment (amino acid 1360-2549, molecular weight=163.9 kDa); GST-tag (N)
# Sequence (P42345 1360-2549): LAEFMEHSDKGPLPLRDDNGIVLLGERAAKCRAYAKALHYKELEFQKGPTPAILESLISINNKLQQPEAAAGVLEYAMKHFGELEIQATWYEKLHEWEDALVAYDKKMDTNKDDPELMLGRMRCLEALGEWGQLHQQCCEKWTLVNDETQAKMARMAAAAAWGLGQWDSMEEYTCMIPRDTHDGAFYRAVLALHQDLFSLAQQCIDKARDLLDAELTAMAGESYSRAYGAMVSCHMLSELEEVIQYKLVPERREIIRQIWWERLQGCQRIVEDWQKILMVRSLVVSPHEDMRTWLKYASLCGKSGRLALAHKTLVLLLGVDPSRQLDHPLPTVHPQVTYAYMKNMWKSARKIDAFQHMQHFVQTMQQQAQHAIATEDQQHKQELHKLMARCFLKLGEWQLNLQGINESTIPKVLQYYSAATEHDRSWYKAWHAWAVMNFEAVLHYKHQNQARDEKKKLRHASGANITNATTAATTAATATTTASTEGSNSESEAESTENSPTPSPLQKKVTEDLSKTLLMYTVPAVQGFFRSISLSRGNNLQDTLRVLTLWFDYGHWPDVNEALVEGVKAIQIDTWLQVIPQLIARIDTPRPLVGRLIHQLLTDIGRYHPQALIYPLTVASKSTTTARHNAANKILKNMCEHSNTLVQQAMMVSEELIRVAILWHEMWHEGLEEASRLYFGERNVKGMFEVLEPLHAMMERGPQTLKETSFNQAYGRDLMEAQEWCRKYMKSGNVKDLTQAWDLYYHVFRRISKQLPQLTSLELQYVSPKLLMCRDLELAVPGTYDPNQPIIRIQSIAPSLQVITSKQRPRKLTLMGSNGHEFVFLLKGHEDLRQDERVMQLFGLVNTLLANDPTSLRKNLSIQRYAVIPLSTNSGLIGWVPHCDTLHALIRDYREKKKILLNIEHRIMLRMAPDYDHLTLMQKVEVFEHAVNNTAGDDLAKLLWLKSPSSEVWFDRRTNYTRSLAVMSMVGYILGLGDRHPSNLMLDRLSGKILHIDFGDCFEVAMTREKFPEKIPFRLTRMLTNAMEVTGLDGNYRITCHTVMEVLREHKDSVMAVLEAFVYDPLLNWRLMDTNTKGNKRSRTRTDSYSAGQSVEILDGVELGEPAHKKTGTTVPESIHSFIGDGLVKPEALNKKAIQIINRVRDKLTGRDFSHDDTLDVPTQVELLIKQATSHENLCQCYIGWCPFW
# PROTOCOL SUMMARY: In vitro enzyme activity assay, mTOR kinase (32P-ATP, P81 filter-binding)
# CONDITION DETAILS: 4EBPI substrate, 10 μM ATP; read-out: mTOR enzyme activity_IC50
pIC50: −log10 of the molar value.

Return pIC50 for the following compound: COc1ncc(-c2ccc3ncc(OCC4(N)CC4)c(=O)n3c2)cc1NS(=O)(=O)c1ccc(F)cc1Cl
6.70 to 7.30

Return pIC50 for the following compound: COc1ncc(-c2ccc3ncc(OCCN4CCC(F)(F)CC4)c(=O)n3c2)cc1NS(=O)(=O)c1sc(C)nc1C
6.70 to 7.30

Return pIC50 for the following compound: COc1ncc(-c2ccc3ncc(OCCN(C)C)c(=O)n3c2)cc1NS(=O)(=O)c1ccc(F)cc1Cl
< 6.70

Return pIC50 for the following compound: COc1ncc(-c2ccc3ncc(OCCN4CCOCC4)c(=O)n3c2)cc1NS(=O)(=O)c1ccc(F)cc1Cl
< 6.70

Return pIC50 for the following compound: COc1ncc(-c2ccc3ncc(OCCN4CCOCC4)c(=O)n3c2)cc1NS(=O)(=O)c1ccc(F)cc1F
< 6.70

Return pIC50 for the following compound: COc1ncc(-c2ccc3ncc(OCCN4CCOCC4)c(=O)n3c2)cc1NS(=O)(=O)c1sc(N)nc1C
6.70 to 7.30

Return pIC50 for the following compound: COc1ncc(-c2ccc3ncc(OCCN4CCNCC4)c(=O)n3c2)cc1NS(=O)(=O)c1sc(C)nc1C
< 6.70
